Cited source for all entries: PubChem BioAssay (NCI)

Measured growth inhibition by item
# assay: NCI Yeast Anticancer Drug Screen. Data for the rad50 strain (AID 155);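 note: 0% = growth of vehicle-only cultures of the same strain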
# measurement conditions: S. cerevisiae rad50 strain growth inhibition; at 50.0 µM; stronger effect = higher value
Compounds without any hit were thinned out: in the full panel of roughly 79,000, 15% have a hit.
Your answer is read as %, so omit the unit and give the number.

As a guide, the following entries are already answered.
compound: O=c1cnn(C2OC(C(O)CO)C(O)C2O)c(=O)[nH]1 (configuration not stated)
units label: %
growth inhibition: -6.9

compound: O=C(/C=C/c1ccc(O)cc1)c1ccc2c(c1)OCO2
units label: %
growth inhibition: 8.05

compound: Oc1cccc2nc3ccccc3cc12
units label: %
growth inhibition: 4.3

compound: O=c1[nH]c(-c2cccnc2)nnc1-c1ccc(Cl)cc1
units label: %
growth inhibition: 17.1

compound: O=S1C=Cc2ccccc21 (configuration not stated)
units label: %
growth inhibition: 9.8

Ask: Which growth inhibition reading was recorded for the compound CCCCOS(=O)OCCCC ?
Reply: 22.7

Ask: Which growth inhibition reading was recorded for the compound Cc1c(Cl)cccc1NC(=O)C(=O)C1C(=O)CC(C)(C)CC1=O ?
Reply: 10.6

Ask: Which growth inhibition reading was recorded for the compound O=C(c1cccc([N+](=O)[O-])c1)N1CCOCC1 ?
Reply: -2.65

###

# assay: NCI Yeast Anticancer Drug Screen. Data for the mec2-1 strain (AID 157)
# measurement conditions: S. cerevisiae mec2-1 strain, at 50.0 µM, stronger effect = higher value
Compounds without any hit were thinned out: in the full panel of roughly 79,000, 15% have a hit.
Tag: Fulfilled if measured growth inhibition is not below 10%, Not fulfilled if it is.

Ask: Is reported growth inhibition greater than or equal to 10% here: COc1cc(C(=O)NC(=S)NC2CCCCCCCCCCC2)cc(OC)c1OC
Reply: Not fulfilled

Ask: Is reported growth inhibition greater than or equal to 10% here: CC(C)(C)NCCCCCO
Reply: Fulfilled

Ask: Is reported growth inhibition greater than or equal to 10% here: COc1ccc(Br)cc1C1SCC(=O)N1c1nncs1 (stereo unspecified)
Reply: Not fulfilled

Ask: Is reported growth inhibition greater than or equal to 10% here: CC(=O)NC1C(O)CC(OCCCSCCN)(C(=O)O)OC1C(O)C(O)CO (stereo unspecified)
Reply: Not fulfilled

Ask: Is reported growth inhibition greater than or equal to 10% here: CC(C)CC1=C(C(=O)c2ccoc2)CC(C)C1 (stereo unspecified)
Reply: Not fulfilled

Ask: Is reported growth inhibition greater than or equal to 10% here: CC(Cc1nc2ccccc2[nH]1)Cc1nc2ccccc2[nH]1
Reply: Fulfilled

Ask: Is reported growth inhibition greater than or equal to 10% here: CCOC(=O)/C(C#N)=C/c1ccc(C)o1
Reply: Not fulfilled

Ask: Is reported growth inhibition greater than or equal to 10% here: CC1=C(C(=O)Nc2ccc([N+](=O)[O-])cc2)C(c2ccc3c(c2)OCO3)C(C(=O)Nc2ccc([N+](=O)[O-])cc2)=C(C)N1
Reply: Fulfilled

Ask: Is reported growth inhibition greater than or equal to 10% here: COc1ccc2cc1Oc1ccc(cc1)CC1c3cc(c(OC)cc3CCN1C)Oc1c3c(cc4c1C(C2)N(C)CC4)OCO3 (stereo unspecified)
Reply: Not fulfilled

Ask: Is reported growth inhibition greater than or equal to 10% here: COc1n[nH]c(N)n1
Reply: Fulfilled

Ask: Is reported growth inhibition greater than or equal to 10% here: O=c1c2ccccc2[nH]c2ccc(Cl)cc12
Reply: Fulfilled

###

# assay: NCI Yeast Anticancer Drug Screen. Data for the sgs1 mgt1 strain (AID 161);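 note: 0% = growth of cultures given vehicle only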
# measurement conditions: S. cerevisiae sgs1 mgt1 strain, at 50.0 µM, stronger effect = higher value
This is part of a sample that, as a whole, favours compounds with a hit. Of some 79,000 tested, about 15% had one in any assay.
quantity kind: growth inhibition (%)
Your answer is read as %, so omit the unit and give the number.

compound: O=S(=O)(Cc1ccccc1)c1ncc(Cl)cn1
units label: %
readout number: 13.2

compound: CC(C)=C1C(=O)C[C@]2(C)C/C=C(\C)CC/C=C(\C)CC[C@@H]12
units label: %
readout number: 62.5

compound: N#C/C(=C\c1c2ccccc2c(Cl)c2ccccc12)C(N)=S
units label: %
readout number: 45.1

Turning to the following compound.
Ask: Which growth inhibition reading was recorded for the compound O=C(O)c1ccc(O)c(Cl)c1 ?
Reply: -7.85

###

# assay: NCI Yeast Anticancer Drug Screen. Data for the cln2 rad14 strain (AID 165);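 note: 0% = growth equal to vehicle treated cultures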
# measurement conditions: S. cerevisiae cln2 rad14 strain, at 50.0 µM
About 79,000 compounds went through this panel and 15% of them were active in at least one assay; those are over-represented in the sample as a whole. Active and inactive are the calls of the source. Rule as the data show it: active = growth inhibition above about 70%; inactive = the rest.
Would you mind answering with one of these outcomes? 1.0 for active, 0.0 for inactive

// known answers, use as guide
compound: CCOC(=O)N1CCN(C(=S)N/N=C(\C)c2cnccn2)CC1
group label: 1.0

compound: Cc1ccc(/C([O-])=C(/C(=S)Nc2ccccc2)[n+]2ccccc2)cc1
group label: 0.0

compound: CCCCCC(=O)OCCCc1ccccc1
group label: 0.0

compound: COc1ccccc1N1C(=O)C2C3c4ccccc4C(OC(C)=O)(c4ccccc43)C2C1=O (configuration not stated)
group label: 0.0

Ask: Given CC(=O)Nc1ccc(/C=N/NC(=O)c2ccc(O)cc2)cc1 , state the outcome it received in this test.
Reply: 0.0

Ask: Given Cc1ccc([N+](=O)[O-])c2c(NCCCN(C)C)ccnc12 , state the outcome it received in this test.
Reply: 0.0

Ask: Given CC(C)CNCCCC(C)Nc1ccnc2cc(Cl)ccc12 (configuration not stated) , state the outcome it received in this test.
Reply: 0.0

Ask: Given Clc1ccc(CSc2ccc3nncc(SCc4ccc(Cl)cc4Cl)c3c2)c(Cl)c1 , state the outcome it received in this test.
Reply: 0.0

Ask: Given CCOC(=O)C(=O)/C(=C/N1CCNC1=S)C(=O)OCC , state the outcome it received in this test.
Reply: 0.0

Ask: Given CCCCCCCC(=O)NN , state the outcome it received in this test.
Reply: 0.0

Ask: Given CNC(=O)NC1CCC(C)CC1 (configuration not stated) , state the outcome it received in this test.
Reply: 0.0

Ask: Given CC1=NCC(=O)N1 , state the outcome it received in this test.
Reply: 0.0

Ask: Given O=C1c2ccccc2CC12Cc1ccc3c(c1C2=O)CCCC3 (configuration not stated) , state the outcome it received in this test.
Reply: 0.0

Ask: Given COC(=O)c1cc(-c2ccc(N)cc2)c2c(=O)n(-c3ccccc3)[nH]c2n1 , state the outcome it received in this test.
Reply: 0.0

Ask: Given O=[N+]([O-])c1ccc2c(c1)Cc1cccc([N+](=O)[O-])c1-2 , state the outcome it received in this test.
Reply: 0.0

Ask: Given NS(=O)(=O)c1cc(Br)ccc1Br , state the outcome it received in this test.
Reply: 0.0

Ask: Given CN1c2ccccc2N(C(=O)c2ccc([N+](=O)[O-])cc2)C(CC(=O)O)c2cccn21 (configuration not stated) , state the outcome it received in this test.
Reply: 0.0

Ask: Given COc1ccccc1-n1c(O)c(N=Nc2ccccc2)c(=O)n(-c2ccc(C)cc2)c1=S , state the outcome it received in this test.
Reply: 0.0

###

# assay: NCI Yeast Anticancer Drug Screen. Data for the cln2 rad14 strain (AID 165);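 note: 0% = growth equal to vehicle treated cultures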
# measurement conditions: S. cerevisiae cln2 rad14 strain, at 50.0 µM, stronger effect = higher value
About 79,000 compounds went through this panel and 15% of them were active in at least one assay; those are over-represented in the sample as a whole.
Measured growth inhibition by item
Your answer is read as %, so omit the unit and give the number.

molecule: O=C1c2ccccc2C(=O)N1OCCCCON1C(=O)c2ccccc2C1=O
growth inhibition [%]: 15.1

molecule: COC1OCC(NC(C)=O)C(OC(C)=O)C1OC(C)=O (stereo unspecified)
growth inhibition [%]: 2.35

molecule: CN(C)Cc1[nH]c2ccccc2c1Sc1ccccc1
growth inhibition [%]: 6.2

molecule: CCCCOC(=O)C1CCCCC1C(=O)OCCCC (stereo unspecified)
growth inhibition [%]: 63.1

molecule: CCOC(=O)C(NC(=O)c1ccccc1)(N1CCOCC1)C(F)(F)F (stereo unspecified)
growth inhibition [%]: 15.8

molecule: C[N+](C)(C)Cc1ccc2ccccc2c1CC(O)(c1ccccc1)c1ccccc1
growth inhibition [%]: 4.85

molecule: COC(=O)/C(=C/c1ccc(OC)cc1)C(C(=O)O)=C1CCCCC1
growth inhibition [%]: 9.75

molecule: Cc1ccc(NC(=O)Nc2cccc(Cl)c2)cc1C
growth inhibition [%]: -17.2

Ask: Which growth inhibition reading was recorded for the molecule NC(=O)CSCC(=O)O ?
Reply: -0.15

Ask: Which growth inhibition reading was recorded for the molecule CC(C)=CC1CC(=O)C1(C)Sc1ccccc1 (stereo unspecified) ?
Reply: 12.9

Ask: Which growth inhibition reading was recorded for the molecule COc1ccc(NC(=O)Nc2ccc(Br)cc2)cc1 ?
Reply: -34
